Biological target: PKA (Bos taurus)
Construct: The catalytic subunit of bovine heart PKA was obtained commercially from Sigma
Assay: PKA catalytic subunit inhibition assay
Details: footnote a) on the CII value: partial inhibition only
Attribute measured: pIC50
In textbook form, pIC50 equals minus log to base ten of the concentration in mol/L.

Query block: What does the record list as pIC50 for CNC(=O)[C@]1(O)CC2CC1n1c3ccccc3c3c4c(c5c6ccccc6n2c5c31)C(=O)NC4=O (some centres unmarked) [CII] ?
Result block: 6.19

* * *

Tested on: tau hyperphosphorylation
Experiment: Okadaic acid induced AD-like tau hyperphosphorylation in rat hippocampal brain slices
Assay type: cell-based
Conditions: adult rat hippocampal brain slices, FIG. 5, read-out: IC50 for prevention of tau hyperphosphorylation in brain slices
Attribute measured: IC50 (nM)
Report the value in nM with no unit label.

Query block: What does the record list as IC50 for CNC(=O)[C@]1(O)CC2CC1n1c3ccccc3c3c4c(c5c6ccccc6n2c5c31)C(=O)NC4=O (stereo partly shown) ?
Result block: 100
